Target: PcGSTd1 (Panonychus citri)
Construct: full ORF in pET-28a (BamHI/NotI), His-tag kept (Ni-NTA), E. coli TransBL21(DE3)
Sequence (H9BTE1 1-217): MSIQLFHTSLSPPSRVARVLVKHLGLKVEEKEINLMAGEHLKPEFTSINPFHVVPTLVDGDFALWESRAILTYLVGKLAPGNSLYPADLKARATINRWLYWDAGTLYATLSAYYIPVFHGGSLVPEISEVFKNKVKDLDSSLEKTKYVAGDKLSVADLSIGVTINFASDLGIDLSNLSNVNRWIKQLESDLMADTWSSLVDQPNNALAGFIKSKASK
Assay: CDNB-GSH conjugation, absorbance […] nm
Conditions: 0.6 mM CDNB, 5 mM GSH, 0.05 M Tris-HCl pH 7.5; ECA 0.05-2 mM
MEASUREMENT_NAME: pIC50
pIC50 is a log-scale quantity: -log10 of the concentration expressed in molar.

Record C=C(CC)C(=O)c1ccc(OCC(=O)O)c(Cl)c1Cl [ethacrynic acid] . Reported pIC50: 2.95
